Test system: S. pneumoniae D39V
Assay: Bliss interaction score (quartile over a dose matrix) (fitness difference); higher = more antagonism (negative = synergy)
Reported Bliss interaction score by item:
Reported Endpoint: Bliss interaction score

>  <Compound>
C[C@@H](O)[C@H]1C(=O)N2C(C(=O)O)=C(SCCNC=N)C[C@H]12 [Imipenem] + CC[C@H]1OC(=O)[C@H](C)C(=O)[C@H](C)[C@@H](O[C@@H]2O[C@H](C)C[C@H](N(C)C)[C@H]2O)[C@](C)(OC)C[C@@H](C)C(=O)[C@H](C)[C@H]2N(CCCCn3cnc(-c4cccnc4)c3)C(=O)O[C@]12C [Telithromycin]

>  <Measured On>
S. pneumoniae D39V

>  <Recorded Result>
0.0906

$$$$
>  <Compound>
CCC[C@@H]1C[C@@H](C(=O)N[C@@H]([C@H]2O[C@H](SC)[C@H](O)[C@@H](O)[C@H]2O)[C@@H](C)O)N(C)C1 [Lincomycin] + Cc1ncc([N+](=O)[O-])n1CCO [Metronidazole]

>  <Measured On>
S. pneumoniae D39V

>  <Recorded Result>
0.138

$$$$
>  <Compound>
O=C(O[C@@H]1Cc2c(O)cc(O)cc2O[C@@H]1c1cc(O)c(O)c(O)c1)c1cc(O)c(O)c(O)c1 [EGCG] + CC[C@H]1OC(=O)[C@H](C)[C@@H](O[C@H]2C[C@@](C)(OC)[C@@H](O)[C@H](C)O2)[C@H](C)[C@@H](O[C@@H]2O[C@H](C)C[C@H](N(C)C)[C@H]2O)[C@](C)(O)C[C@@H](C)C(=O)[C@H](C)[C@@H](O)[C@]1(C)O [Erythromycin]

>  <Measured On>
S. pneumoniae D39V

>  <Recorded Result>
0.0597

$$$$
>  <Compound>
O=C1CN(/N=C/c2ccc([N+](=O)[O-])o2)C(=O)N1 [Nitrofurantoin] + CN[C@H](CC(C)C)C(=O)N[C@H]1C(=O)N[C@@H](CC(N)=O)C(=O)N[C@H]2C(=O)N[C@H]3C(=O)N[C@H](C(=O)N[C@H](C(=O)O)c4cc(O)cc(O)c4-c4cc3ccc4O)[C@H](O[C@H]3C[C@](C)(N)[C@@H](O)[C@H](C)O3)c3ccc(c(Cl)c3)Oc3cc2cc(c3O[C@@H]2O[C@H](CO)[C@@H](O)[C@H](O)[C@H]2O[C@H]2C[C@](C)(NCc3ccc(-c4ccc(Cl)cc4)cc3)[C@@H](O)[C@H](C)O2)Oc2ccc(cc2Cl)[C@H]1O [Oritavancin]

>  <Measured On>
S. pneumoniae D39V

>  <Recorded Result>
-0.0352

$$$$
>  <Compound>
COc1c(N2C[C@@H]3CCCN[C@@H]3C2)c(F)cc2c(=O)c(C(=O)O)cn(C3CC3)c12 [Moxifloxacin] + Cc1onc(-c2ccccc2)c1C(=O)N[C@@H]1C(=O)N2[C@@H]1SC(C)(C)[C@@H]2C(=O)O [Oxacillin]

>  <Measured On>
S. pneumoniae D39V

>  <Recorded Result>
0.0911

$$$$
>  <Compound>
CC[C@H]1OC(=O)[C@H](C)[C@@H](O[C@H]2C[C@@](C)(OC)[C@@H](O)[C@H](C)O2)[C@H](C)[C@@H](O[C@@H]2O[C@H](C)C[C@H](N(C)C)[C@H]2O)[C@](C)(OC)C[C@@H](C)C(=O)[C@H](C)[C@@H](O)[C@]1(C)O [Clarithromycin] + C[C@@H]1O[C@@H]1P(=O)(O)O [Fosfomycin]

>  <Measured On>
S. pneumoniae D39V

>  <Recorded Result>
0.0544

$$$$
>  <Compound>
CC(=O)O[C@H]1C[C@@]2(C)[C@@H](C[C@@H](O)[C@H]3[C@@]4(C)CC[C@@H](O)[C@@H](C)[C@@H]4CC[C@@]32C)/C1=C(\CCC=C(C)C)C(=O)O [Fusidic acid] + CN[C@@H]1[C@H](O[C@H]2[C@H](O[C@H]3[C@H](O)[C@@H](O)[C@H](N=C(N)N)[C@@H](O)[C@@H]3N=C(N)N)O[C@@H](C)[C@]2(O)C=O)O[C@@H](CO)[C@H](O)[C@H]1O [Streptomycin]

>  <Measured On>
S. pneumoniae D39V

>  <Recorded Result>
-0.0901

$$$$
>  <Compound>
C/C(=C\C(=O)OCCCCCCCCC(=O)O)C[C@@H]1OC[C@H](C[C@@H]2O[C@H]2[C@@H](C)[C@H](C)O)[C@@H](O)[C@H]1O [Pseudomonic acid] + CN(C)c1cc(NC(=O)CNC(C)(C)C)c(O)c2c1C[C@H]1C[C@H]3[C@H](N(C)C)C(O)=C(C(N)=O)C(=O)[C@@]3(O)C(O)=C1C2=O [Tigecycline]

>  <Measured On>
S. pneumoniae D39V

>  <Recorded Result>
-0.124

$$$$
>  <Compound>
CCC[C@@H]1C[C@@H](C(=O)N[C@@H]([C@H]2O[C@H](SC)[C@H](O)[C@@H](O)[C@H]2O)[C@@H](C)O)N(C)C1 [Lincomycin] + CO[C@@]12[C@H](COC(N)=O)C3=C(C(=O)C(C)=C(N)C3=O)N1C[C@@H]1N[C@@H]12 [MitomycinC]

>  <Measured On>
S. pneumoniae D39V

>  <Recorded Result>
-0.0879

$$$$
>  <Compound>
O=C1CN(/N=C/c2ccc([N+](=O)[O-])o2)C(=O)N1 [Nitrofurantoin] + CN[C@@H]1[C@H](O[C@H]2[C@H](O[C@H]3[C@H](O)[C@@H](O)[C@H](N=C(N)N)[C@@H](O)[C@@H]3N=C(N)N)O[C@@H](C)[C@]2(O)C=O)O[C@@H](CO)[C@H](O)[C@H]1O [Streptomycin]

>  <Measured On>
S. pneumoniae D39V;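 note: first quartile when negative (synergy) and third quartile when positive (antagonism)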

>  <Recorded Result>
0.0583

$$$$
>  <Compound>
COc1c(N2C[C@@H]3CCCN[C@@H]3C2)c(F)cc2c(=O)c(C(=O)O)cn(C3CC3)c12 [Moxifloxacin] + Oc1cc(Cl)ccc1Oc1ccc(Cl)cc1Cl [Triclosan]

>  <Measured On>
S. pneumoniae D39V;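 note: first quartile when negative (synergy) and third quartile when positive (antagonism)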

>  <Recorded Result>
0.0747

$$$$
>  <Compound>
CC(=O)O[C@H]1C[C@@]2(C)[C@@H](C[C@@H](O)[C@H]3[C@@]4(C)CC[C@@H](O)[C@@H](C)[C@@H]4CC[C@@]32C)/C1=C(\CCC=C(C)C)C(=O)O [Fusidic acid] + COc1ccc(C[C@H](N)C(=O)N[C@H]2[C@@H](O)[C@H](n3cnc4c(N(C)C)ncnc43)O[C@@H]2CO)cc1 [Puromycin]

>  <Measured On>
S. pneumoniae D39V;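 note: first quartile when negative (synergy) and third quartile when positive (antagonism)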

>  <Recorded Result>
-0.213

$$$$
>  <Compound>
O=C(N[C@H](CO)[C@H](O)c1ccc([N+](=O)[O-])cc1)C(Cl)Cl [Chloramphenicol] + CC(=O)O[C@H]1C[C@@]2(C)[C@@H](C[C@@H](O)[C@H]3[C@@]4(C)CC[C@@H](O)[C@@H](C)[C@@H]4CC[C@@]32C)/C1=C(\CCC=C(C)C)C(=O)O [Fusidic acid]

>  <Measured On>
S. pneumoniae D39V;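 note: first quartile when negative (synergy) and third quartile when positive (antagonism)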

>  <Recorded Result>
-0.103

$$$$
